Test system: NCI-H522 lung
Test: NCI tumour cell line growth inhibition, 48 h; in the data active = GI50 below about 0.43 µM; inactive = the rest
Form entry, call: pick from active, inactive

Use the examples below as a reference point.
COc1ccc2[nH]c(Cl)c(/C=C3/C(=O)N(C)c4ccccc43)c2c1 | inactive
C/C=C(\C)C(=O)O[C@H]1C=CC(=O)O[C@H]1CNC(=O)[C@H](C)O | inactive
O=C(C(Br)Br)C(Br)C(Br)c1ccccc1 (stereo unspecified) | inactive
O=C1c2ccccc2-c2c1c1ccccc1c(=O)n2CCNCCNCCn1c2c(c3ccccc3c1=O)C(=O)c1ccccc1-2 | inactive
Cc1ccc2c(=O)c3cccc(CC(=O)O)c3oc2c1C | inactive

stdin: Hello, I am checking results. What call was entered for C[C@H]1CCC/C=C/[C@@H]2C[C@H](O)C[C@H]2[C@H](O)[C@@H](S(=O)CCN(C)C)CC(=O)O1 (stereo partly specified) ?
stdout: active

====

System: 786-0 renal
Experiment: NCI tumour cell line growth inhibition, 48 h; in the data active = GI50 below about 0.43 µM; inactive = the rest
Form entry, call: pick from yes (active), no (inactive)

Use the examples below as a reference point.
COc1cc(/C=C/C(=O)c2ccc(Cl)cc2)ccc1OS(=O)(=O)c1ccc(C)cc1 | no
COc1nc(C)cc2c(=O)n(-c3ccccc3)n(CCCN3CCN(c4ccc(Cl)cc4)CC3)c(=O)c12 | no

Turning to the following molecule.
stdin: Hello, I am checking results. What call was entered for CCN(CC)CCOc1ccc(/C=C2\CC3C4CC=C5C[C@@H](N6CCCC6)CC[C@]5(C)C4CC[C@]3(C)[C@H]2O)cc1OC (some centres undefined) ?
stdout: no

====

Tested on: HCC-2998 colon
Test: NCI tumour cell line growth inhibition, 48 h
The compounds listed here are annotated with their TGI.
Write down the numeric answer in µM and omit the unit.

Cc1nc2cccc(NCc3ccc(C(=O)NO)cc3)c2c(=O)n1-c1ccccc1 | 3.27
C=C1C(=O)OC2C1C(OC(=O)/C(C)=C/C)CC1(C)C(=O)CCC(=C)C21 (stereo not given) | 26.6

Now take the following compound into account.
stdin: Input "COc1cccc(-c2nc3c(C(=O)NCCN(C)C)cccc3[nH]2)c1" , output reported TGI.
stdout: 30.8

====

Test system: A549 NSCLC
Experiment: NCI tumour cell line growth inhibition, 48 h
value type: TGI

Study these solved cases before continuing.
COc1ccc2ccc([Se]c3ccc4ccc(OC)cc4c3)cc2c1 | > 100 µM
CCOC(=O)C1C(=O)c2ccccc2CN1Cc1ccccc1 (centres undefined) | > 100 µM
COC(=O)c1c(CC#N)cccc1CC#N | > 100 µM

stdin: Input "CC[N+](CC)(CC)CCCn1c2c(c3ccccc3c1=O)C(=O)c1ccccc1-2" , output reported TGI.
stdout: 35.8 µM

====

Test system: K-562 leukemia
Test: NCI tumour cell line growth inhibition, 48 h
value type: TGI

Study these solved cases before continuing.
CCN(CC)Cc1cc(Nc2c3ccccc3nc3c2[nH]c2ccccc23)ccc1O | > 100 µM
Cc1cc(Cl)ccc1N=NC(=O)NNc1ccc(Cl)cc1C | 63 µM
C=CCOCn1ccc(=O)[nH]c1=O | > 100 µM
CC(=O)O[C@H]1C(=O)[C@@]2(C)[C@H]([C@H](OC(=O)C3CCCCC3)[C@]3(O)C[C@H](OC(=O)[C@H](O)[C@@H](NC(=O)C4CCCCC4)C4CCCCC4)C(C)=C1C3(C)C)[C@]1(OC(C)=O)CO[C@@H]1C[C@@H]2O | 8.96 µM
CCOC(=O)c1c(NC(=O)Nc2ccccc2)c(C(N)=O)c2n1CCCCC2 | > 100 µM
CCOC(=O)CCC(NC(=O)c1ccc(Nc2nc3cc(C(F)(F)F)ccc3nc2-c2ccccc2)cc1)C(=O)OCC (stereo not given) | > 100 µM

stdin: Input "COc1ccc(/C=C\c2cc(OC)c(OC)c(OC)c2)cc1OCC(=O)Nc1nc2ccc(C(F)(F)F)cc2s1" , output reported TGI.
stdout: > 100 µM

stdin: Input CC(=O)/C=C/c1ccc(C2CC(C)=Nc3c(ccc4c3C(=O)c3ccccc3C4=O)N2)cc1 (stereo not given) , output reported TGI.
stdout: > 100 µM

stdin: Input CCOC(=O)n1cncc1CC(NC(=O)Cc1c(C(=O)C=C(C)C)[nH]c2ccccc12)C(=O)OC (stereo not given) , output reported TGI.
stdout: > 100 µM

stdin: Input "CC(=O)N1c2ccccc2Sc2cc(C(O)(C(F)(F)F)C(F)(F)F)ccc21" , output reported TGI.
stdout: > 10 µM

This collection of values is drawn from PubChem BioAssay (NCI).
